Listed variants paired with reported protein stability index
B1: DLC1 (parent)
chain: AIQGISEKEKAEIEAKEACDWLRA

Variants of: B1
Test Description: protein stability index of a GFP-peptide fusion (GPS, HEK-293T) (PSI 1-6); higher = more stable;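 also: lentivirally expressed fusions sorted by FACS into six bins by GFP to DsRed ratio, PSI derived from sequencing read proportions per bin multiplied by bin number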
Measurement Context: c terminus: a fixed tail appended
Readout Kind: protein stability index

- A15Q: 4.52
- E17A: 4.14
- L22E: 5.62
- I5S: 4.8
- I5E: 4.35
- E12Y: 3.53
- K10I: 3.8
- A15K: 4.61
- E14I: 3.81
- A24V: 4.58
- W21C: 5.35
